test system: KB; assay: Cytotoxicity against human KB cells after 72 hrs by MTS assay; assay type: functional, cell-based
// values below are reported pIC50
Interpret pIC50 as the negative base-10 log of the concentration measured in mol/L.

Nc1nc2ncc(CNc3ccc(C(=O)NCCCCCCCC(=O)NO)cc3)nc2c(=O)[nH]1
4.52
Nc1nc2ncc(CNc3ccc(C(=O)NCCCCCCC(=O)NO)cc3)nc2c(=O)[nH]1
4.27

With those in mind, consider the next molecule.
Briefly, pIC50 measured for CC(=O)Nc1ccc(C(=O)Nc2cc(-c3cccs3)ccc2N)cc1 : 5.28

----------
// values below are reported IC50
target: Histone deacetylase 1 (Homo sapiens)
Sequence (Q13547 whole entry): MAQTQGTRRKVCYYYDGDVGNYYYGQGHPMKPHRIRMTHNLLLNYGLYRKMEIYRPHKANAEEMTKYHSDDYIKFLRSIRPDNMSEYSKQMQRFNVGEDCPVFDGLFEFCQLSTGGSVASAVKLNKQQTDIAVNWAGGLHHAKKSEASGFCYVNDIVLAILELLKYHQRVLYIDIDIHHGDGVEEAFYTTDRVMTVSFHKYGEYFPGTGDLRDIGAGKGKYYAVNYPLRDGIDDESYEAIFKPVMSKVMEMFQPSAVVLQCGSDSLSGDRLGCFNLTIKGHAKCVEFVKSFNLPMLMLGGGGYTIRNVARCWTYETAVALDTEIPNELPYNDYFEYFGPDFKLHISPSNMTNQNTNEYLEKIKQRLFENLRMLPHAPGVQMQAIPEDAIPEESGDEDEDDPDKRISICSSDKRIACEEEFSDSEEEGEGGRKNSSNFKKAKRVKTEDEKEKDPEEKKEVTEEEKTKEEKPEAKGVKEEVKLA
Quick reminder: number only, in nM, skip the unit.

Solved entries (count: 2):
Nc1nc2ncc(CNc3ccc(C(=O)NCCCCCCC(=O)NO)cc3)nc2c(=O)[nH]1
23.4
Nc1nc2ncc(CNc3ccc(C(=O)N[C@@H](CCC(=O)NCCCC(=O)Nc4cc(-c5cccs5)ccc4N)C(=O)O)cc3)nc2c(=O)[nH]1
2940

Given the compound Nc1nc2ncc(CNc3ccc(C(=O)N[C@@H](CCC(=O)NCCCCCCC(=O)NO)C(=O)O)cc3)nc2c(=O)[nH]1 and test system Histone deacetylase 1 (Homo sapiens), the measured IC50 is 1770

Given the compound Nc1nc2ncc(CNc3ccc(C(=O)N[C@@H](CCC(=O)NCCCCCCCC(=O)NO)C(=O)O)cc3)nc2c(=O)[nH]1 and test system Histone deacetylase 1 (Homo sapiens), the measured IC50 is 1800
